biological target: opioid µOR (Homo sapiens, UniProt P35372); assay: Radioligand displacement, [3H]diprenorphine; settings: Ki [nM ± SD], µOR
Sequence (P35372 whole entry): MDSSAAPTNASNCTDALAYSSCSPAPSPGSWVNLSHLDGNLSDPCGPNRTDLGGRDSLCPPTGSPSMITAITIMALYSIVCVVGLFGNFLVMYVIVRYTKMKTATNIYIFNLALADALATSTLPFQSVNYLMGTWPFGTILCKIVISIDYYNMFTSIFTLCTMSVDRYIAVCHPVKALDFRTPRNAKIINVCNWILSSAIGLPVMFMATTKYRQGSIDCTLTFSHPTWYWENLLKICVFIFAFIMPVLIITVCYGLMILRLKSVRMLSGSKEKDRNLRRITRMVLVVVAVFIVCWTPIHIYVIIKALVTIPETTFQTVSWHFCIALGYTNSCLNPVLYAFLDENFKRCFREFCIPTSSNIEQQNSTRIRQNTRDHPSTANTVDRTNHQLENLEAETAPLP
parameterMeasured: Ki (nM)
Expressed in nM, but write only the number.

API: value(readout=Ki, system=opioid µOR (Homo sapiens, UniProt P35372)) for record COc1ccccc1OCCNCCCOc1ccc2c(c1)NC(=O)CO2 8600

* * *

biological target: neurotensin NTS2 (Homo sapiens, UniProt O95665); test: Radioligand displacement, [3H]NT(8-13); details: pKi
Sequence (O95665 whole entry): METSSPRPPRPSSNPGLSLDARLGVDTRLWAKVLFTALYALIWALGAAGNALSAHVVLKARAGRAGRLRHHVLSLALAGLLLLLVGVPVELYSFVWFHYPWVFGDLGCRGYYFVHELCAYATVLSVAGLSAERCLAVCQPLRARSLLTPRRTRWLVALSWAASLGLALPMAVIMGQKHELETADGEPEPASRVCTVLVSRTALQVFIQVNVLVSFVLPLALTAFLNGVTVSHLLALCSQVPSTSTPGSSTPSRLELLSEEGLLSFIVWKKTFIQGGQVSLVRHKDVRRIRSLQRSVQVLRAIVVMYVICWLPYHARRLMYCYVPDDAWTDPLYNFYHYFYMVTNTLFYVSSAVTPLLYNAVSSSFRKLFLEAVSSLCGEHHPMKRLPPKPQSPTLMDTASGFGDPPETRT
pKi: −log10 of the molar value.
parameterMeasured: pKi

Bench note: what pKi did COc1ccccc1OCCNCCCOc1ccc2c(c1)NC(=O)CO2 show? < 4.30

* * *

target: 5-HT1AR (Homo sapiens); experiment: IP-One accumulation with hybrid Gαqi in HEK293T; type: cell-based; parameters: host or cells: HEK293T, HEK293A, HEK293AΔGs, HEK293AΔGi/o, HEK293AΔARRB1/B2; conditions: hybrid Gαqi, HEK293T; read-out: EC50[Gqi], IP accumulation
parameterMeasured: pEC50
When answering, recall that pEC50 equals minus log10 of the concentration in mol/L, and write that number alone.

Bench note: what pEC50 did COc1ccccc1OCCNCCCOc1ccc2c(c1)NC(=O)CO2 show? 7.89

* * *

biological target: neurotensin NTS1 (Homo sapiens, UniProt P30989); experiment: Radioligand displacement, [3H]NT(8-13); settings: pKi
Sequence (P30989 whole entry): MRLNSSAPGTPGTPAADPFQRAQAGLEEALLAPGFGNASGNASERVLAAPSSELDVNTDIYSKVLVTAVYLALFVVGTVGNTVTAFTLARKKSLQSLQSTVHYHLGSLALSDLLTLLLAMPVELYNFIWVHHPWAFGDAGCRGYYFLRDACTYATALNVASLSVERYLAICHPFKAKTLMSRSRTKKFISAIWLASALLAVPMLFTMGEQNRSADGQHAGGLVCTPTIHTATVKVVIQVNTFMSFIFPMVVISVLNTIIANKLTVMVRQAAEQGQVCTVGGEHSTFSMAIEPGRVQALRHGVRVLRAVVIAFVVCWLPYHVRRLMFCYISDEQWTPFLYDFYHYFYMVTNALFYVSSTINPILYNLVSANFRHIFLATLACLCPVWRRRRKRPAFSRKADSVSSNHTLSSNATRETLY
parameterMeasured: Ki

Bench note: what Ki did COc1ccccc1OCCNCCCOc1ccc2c(c1)NC(=O)CO2 [ST171] show? > 50.1 µM

* * *

target: opioid κOR (Homo sapiens); experiment: Radioligand displacement, [3H]diprenorphine; details: pKi
Sequence (P41145 whole entry): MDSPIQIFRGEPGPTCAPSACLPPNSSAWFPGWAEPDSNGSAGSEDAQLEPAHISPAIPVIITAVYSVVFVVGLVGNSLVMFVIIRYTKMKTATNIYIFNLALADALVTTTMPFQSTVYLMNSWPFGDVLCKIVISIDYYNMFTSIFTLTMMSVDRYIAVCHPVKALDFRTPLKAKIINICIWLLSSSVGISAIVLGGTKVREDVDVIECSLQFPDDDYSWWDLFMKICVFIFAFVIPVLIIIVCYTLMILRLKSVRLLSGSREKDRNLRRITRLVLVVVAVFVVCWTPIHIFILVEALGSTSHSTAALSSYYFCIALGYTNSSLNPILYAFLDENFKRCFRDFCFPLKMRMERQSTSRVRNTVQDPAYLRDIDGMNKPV
parameterMeasured: Ki (µM)
Expressed in µM, but write only the number.

Bench note: what Ki did COc1ccccc1OCCNCCCOc1ccc2c(c1)NC(=O)CO2 show? 6.28

* * *

target: 5-HT1AR wildtype (Homo sapiens, UniProt P08908); construct: host or cells: HEK293T, HEK293A, HEK293AΔGs, HEK293AΔGi/o, HEK293AΔARRB1/B2; experiment: β-arrestin 2 recruitment, enhanced bystander BRET in HEK293T with GRK2; format: cell-based; conditions: HEK-293T; read-out: Emax [% ± SEM], β-arrestin 2 recruitment
parameterMeasured: Emax

Bench note: what Emax did O=C1Cc2cc(CCN3CCN(c4nsc5ccccc45)CC3)c(Cl)cc2N1 show? < 5%

Bench note: what Emax did COc1ccccc1OCCNCCCOc1ccc2c(c1)NC(=O)CO2 show? < 5%

Bench note: what Emax did O=C1CC2(CCCC2)CC(=O)N1CCCCN1CCN(c2ncccn2)CC1 show? < 5%

Bench note: what Emax did Cc1ccc(CNCC2(F)CCN(C(=O)c3ccc(F)c(Cl)c3)CC2)nc1 [befiradol, reference compound] show? 79%

* * *

Target: UniProt P08172
Sequence (P08172 1-466): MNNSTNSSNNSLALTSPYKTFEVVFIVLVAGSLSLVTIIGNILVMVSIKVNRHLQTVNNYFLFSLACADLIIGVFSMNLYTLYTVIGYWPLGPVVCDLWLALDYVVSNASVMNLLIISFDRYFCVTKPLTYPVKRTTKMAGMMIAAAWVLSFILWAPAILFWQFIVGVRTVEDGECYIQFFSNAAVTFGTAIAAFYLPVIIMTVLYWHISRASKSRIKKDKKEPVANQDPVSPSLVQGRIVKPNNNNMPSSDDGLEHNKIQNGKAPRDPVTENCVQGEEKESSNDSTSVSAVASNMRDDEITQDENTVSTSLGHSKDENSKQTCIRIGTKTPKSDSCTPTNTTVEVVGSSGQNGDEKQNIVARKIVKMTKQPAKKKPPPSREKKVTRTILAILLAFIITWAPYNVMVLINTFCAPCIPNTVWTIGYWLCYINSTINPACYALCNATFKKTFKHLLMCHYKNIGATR
Assay: Radioligand displacement, [3H]NMS
Details: pKi
parameterMeasured: Ki (µM)
Expressed in µM, but write only the number.

Bench note: what Ki did COc1ccccc1OCCNCCCOc1ccc2c(c1)NC(=O)CO2 show? 16.3

* * *

biological target: 5-HT1AR F112^3.28W + M92^2.60F (Homo sapiens, UniProt P08908, F112W/M92F); experiment: GloSensor cAMP assay in HEK293A cells; format: cell-based; conditions: HEK293A, GloSensor, F112W + M92F; read-out: EC50 left [nM±SEM], inhibition of cAMP accumulation
Sequence (P08908 whole entry M92F/F112W): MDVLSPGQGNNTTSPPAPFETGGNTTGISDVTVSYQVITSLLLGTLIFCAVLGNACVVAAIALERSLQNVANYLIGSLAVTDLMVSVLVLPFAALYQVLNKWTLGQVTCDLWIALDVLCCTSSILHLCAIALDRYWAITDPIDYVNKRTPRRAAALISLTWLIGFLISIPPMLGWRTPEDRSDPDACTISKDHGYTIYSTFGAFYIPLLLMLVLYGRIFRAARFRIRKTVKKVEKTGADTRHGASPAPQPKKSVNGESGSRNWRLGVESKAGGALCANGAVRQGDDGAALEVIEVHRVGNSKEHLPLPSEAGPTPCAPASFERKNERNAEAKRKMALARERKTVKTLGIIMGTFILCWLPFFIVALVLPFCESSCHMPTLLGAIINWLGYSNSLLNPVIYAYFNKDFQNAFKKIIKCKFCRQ
parameterMeasured: EC50 (nM)
Expressed in nM, but write only the number.

Bench note: what EC50 did COc1ccccc1OCCNCCCOc1ccc2c(c1)NC(=O)CO2 [ST171] show? 1.7

* * *

target: muscarinic M2 (Homo sapiens); assay: Radioligand displacement, [3H]NMS; settings: Ki [nM ± SD]
parameterMeasured: Ki (nM)
Expressed in nM, but write only the number.

Bench note: what Ki did COc1ccccc1OCCNCCCOc1ccc2c(c1)NC(=O)CO2 show? 18000

* * *

biological target: 5-HT1DR (Homo sapiens); assay: BRET Gαi1 activation
Sequence (P28221 whole entry): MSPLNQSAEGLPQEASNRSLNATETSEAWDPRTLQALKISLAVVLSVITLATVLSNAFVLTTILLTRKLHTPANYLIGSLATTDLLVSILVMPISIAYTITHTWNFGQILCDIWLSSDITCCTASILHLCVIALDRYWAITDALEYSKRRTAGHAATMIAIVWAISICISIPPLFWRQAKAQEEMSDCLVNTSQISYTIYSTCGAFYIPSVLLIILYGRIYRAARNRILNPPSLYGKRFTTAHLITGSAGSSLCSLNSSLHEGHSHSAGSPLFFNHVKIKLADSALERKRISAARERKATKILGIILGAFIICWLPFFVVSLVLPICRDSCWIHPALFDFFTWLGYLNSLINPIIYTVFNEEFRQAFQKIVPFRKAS
parameterMeasured: EC50 (nM)
Expressed in nM, but write only the number.

Bench note: what EC50 did COc1ccccc1OCCNCCCOc1ccc2c(c1)NC(=O)CO2 show? 5.7

* * *

target: 5-HT2AR (Homo sapiens); construct: whole cells for IP-One; test: Radioligand competition, displacement of [3H]ketanserin; assay type: binding
Sequence (P28223 whole entry): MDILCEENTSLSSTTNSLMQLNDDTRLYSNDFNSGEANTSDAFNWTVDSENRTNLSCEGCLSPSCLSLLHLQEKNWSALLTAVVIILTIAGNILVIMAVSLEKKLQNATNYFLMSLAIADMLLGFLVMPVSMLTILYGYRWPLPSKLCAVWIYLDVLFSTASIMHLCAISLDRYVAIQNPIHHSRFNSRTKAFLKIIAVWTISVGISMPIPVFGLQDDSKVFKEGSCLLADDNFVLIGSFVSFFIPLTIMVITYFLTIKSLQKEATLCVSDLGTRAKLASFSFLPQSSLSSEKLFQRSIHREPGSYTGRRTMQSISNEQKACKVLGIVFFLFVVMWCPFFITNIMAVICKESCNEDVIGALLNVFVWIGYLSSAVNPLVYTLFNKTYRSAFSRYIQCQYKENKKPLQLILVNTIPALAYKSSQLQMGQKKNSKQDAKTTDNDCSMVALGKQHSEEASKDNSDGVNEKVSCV
parameterMeasured: pKi
When answering, recall that pKi equals minus log10 of the concentration in mol/L, and write that number alone.

Bench note: what pKi did Cc1ccc(CNCC2(F)CCN(C(=O)c3ccc(F)c(Cl)c3)CC2)nc1 [befiradol, reference compound] show? 4.82

* * *

experiment: In vivo pharmacokinetic studies; conditions: mouse, CSF, ip; male C57BL/6 mice, 10 mg/kg i.p.
parameterMeasured: Cmax

Bench note: what Cmax did COc1ccccc1OCCNCCCOc1ccc2c(c1)NC(=O)CO2 [ST171] show? ~40 nM

* * *

Target: adrenergic α2A (Homo sapiens, UniProt P08913)
Sequence (P08913 1-465): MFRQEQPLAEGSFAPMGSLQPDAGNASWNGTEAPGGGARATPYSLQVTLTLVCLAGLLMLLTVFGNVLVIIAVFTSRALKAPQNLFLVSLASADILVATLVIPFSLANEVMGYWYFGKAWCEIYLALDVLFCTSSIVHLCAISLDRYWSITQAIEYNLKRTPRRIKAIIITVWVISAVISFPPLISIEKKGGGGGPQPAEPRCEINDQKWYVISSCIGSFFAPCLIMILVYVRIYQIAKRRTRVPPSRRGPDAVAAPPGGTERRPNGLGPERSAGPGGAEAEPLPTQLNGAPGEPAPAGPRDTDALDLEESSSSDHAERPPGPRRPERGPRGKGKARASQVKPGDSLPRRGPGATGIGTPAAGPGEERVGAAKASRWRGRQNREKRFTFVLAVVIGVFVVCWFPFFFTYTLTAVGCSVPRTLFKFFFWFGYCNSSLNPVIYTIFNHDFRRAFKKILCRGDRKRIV
Assay: Radioligand displacement, [3H]RX821002
Conditions: Ki [nM ± SD]
parameterMeasured: Ki (nM)
Expressed in nM, but write only the number.

Bench note: what Ki did COc1ccccc1OCCNCCCOc1ccc2c(c1)NC(=O)CO2 [ST171] show? 260

* * *

molecular target: 5-HT1AR (Homo sapiens, UniProt P08908); assay: BRET-based cAMP assay (CAMYEL biosensor) in CHO-K1 cells; assay type: cell-based; details: CHOK1, CAMYEL, wildtype; read-out: EC50 left [nM±SEM], inhibition of cAMP accumulation
parameterMeasured: EC50 (nM)
Expressed in nM, but write only the number.

API: value(readout=EC50, system=5-HT1AR (Homo sapiens, UniProt P08908)) for record COc1ccccc1OCCNCCCOc1ccc2c(c1)NC(=O)CO2 0.88

* * *

molecular target: 5-HT1AR + GαoA (Homo sapiens, UniProt P08908); construct: host or cells: HEK293AΔGi/o; experiment: GloSensor cAMP in HEK293AΔGi/o co-transfected with GαoA; assay type: cell-based; conditions: HEK293AΔGi/o + GαoA; read-out: EC50 [nM ± SEM], inhibition of cAMP accumulation
Sequence (P09471 2-354 partner limits assumed, one chain of several): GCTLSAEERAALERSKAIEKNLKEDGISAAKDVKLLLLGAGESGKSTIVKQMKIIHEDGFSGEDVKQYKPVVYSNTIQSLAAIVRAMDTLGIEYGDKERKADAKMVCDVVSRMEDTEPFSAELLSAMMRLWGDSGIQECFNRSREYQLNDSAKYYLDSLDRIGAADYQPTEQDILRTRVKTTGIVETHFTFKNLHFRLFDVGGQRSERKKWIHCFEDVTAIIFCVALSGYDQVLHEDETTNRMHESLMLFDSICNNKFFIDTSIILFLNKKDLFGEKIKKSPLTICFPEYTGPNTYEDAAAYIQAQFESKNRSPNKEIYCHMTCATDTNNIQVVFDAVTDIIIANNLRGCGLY
parameterMeasured: EC50 (nM)
Expressed in nM, but write only the number.

Bench note: what EC50 did COc1ccccc1OCCNCCCOc1ccc2c(c1)NC(=O)CO2 [ST171] show? 4.1

* * *

target: 5-HT1AR + Gαi1 (Homo sapiens, UniProt P08908); test: cell-based
Sequence (P08908 whole entry): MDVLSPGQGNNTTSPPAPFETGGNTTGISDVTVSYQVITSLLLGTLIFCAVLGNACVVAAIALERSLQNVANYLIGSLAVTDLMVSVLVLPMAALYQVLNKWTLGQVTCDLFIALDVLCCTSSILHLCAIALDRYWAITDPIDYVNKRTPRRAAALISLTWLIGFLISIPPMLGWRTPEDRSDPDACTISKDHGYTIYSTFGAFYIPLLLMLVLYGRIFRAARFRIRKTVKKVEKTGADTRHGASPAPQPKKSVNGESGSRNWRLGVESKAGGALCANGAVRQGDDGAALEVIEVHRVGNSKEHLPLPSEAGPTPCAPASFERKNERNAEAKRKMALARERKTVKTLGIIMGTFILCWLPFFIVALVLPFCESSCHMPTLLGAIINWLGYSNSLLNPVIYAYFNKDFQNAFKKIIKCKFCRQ
Sequence (P63096 2-354 partner limits assumed): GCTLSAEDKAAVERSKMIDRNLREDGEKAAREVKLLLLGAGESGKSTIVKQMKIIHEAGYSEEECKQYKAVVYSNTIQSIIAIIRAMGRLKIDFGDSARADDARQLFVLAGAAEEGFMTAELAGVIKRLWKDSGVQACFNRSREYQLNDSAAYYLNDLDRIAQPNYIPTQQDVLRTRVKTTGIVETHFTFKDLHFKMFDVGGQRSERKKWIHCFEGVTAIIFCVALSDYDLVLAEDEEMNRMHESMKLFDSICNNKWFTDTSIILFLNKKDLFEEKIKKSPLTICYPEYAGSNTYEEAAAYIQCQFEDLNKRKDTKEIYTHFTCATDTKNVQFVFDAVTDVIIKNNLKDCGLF
parameterMeasured: EC50 (nM)
Expressed in nM, but write only the number.

Bench note: what EC50 did COc1ccccc1OCCNCCCOc1ccc2c(c1)NC(=O)CO2 show? 2.5

* * *

target: 5-HT1AR wildtype (Homo sapiens, UniProt P08908); construct: host or cells: HEK293T, HEK293A, HEK293AΔGs, HEK293AΔGi/o, HEK293AΔARRB1/B2; experiment: GloSensor inhibition of cAMP accumulation in HEK293AΔGs; format: cell-based; settings: HEK293AΔGs, wildtype; read-out: EC50 [nM ± SEM], inhibition of cAMP accumulation
Assignment: determine reported EC50 for the given compounds.
I'd appreciate it if you wrote the number followed by its unit.

Bench note: what EC50 did COc1ccccc1OCCNCCCOc1ccc2c(c1)NC(=O)CO2 [ST171] show? 5.3 nM

Bench note: what EC50 did O=C1Cc2cc(CCN3CCN(c4nsc5ccccc45)CC3)c(Cl)cc2N1 [ziprasidone] show? 370 nM

Each recorded value in this set is attributed to paper PMC12175894.
